Organism: Homo sapiens
Experiment: Concentration required to inhibit collagen-induced platelet aggregation by 50%
Assay type: functional
REPORTED PROPERTY: IC50 (µM)

Field: example entries. Status: answers known.
{"COMPOUND": "COc1cc(-c2cc(OCCCN(C)C)[nH]n2)cc(OC)c1OC", "IC50, µM": 41.1}
{"COMPOUND": "CN(C)CCCOc1cc(-c2ccccc2)n(Cc2ccccc2)n1", "IC50, µM": 2.37}
{"COMPOUND": "CN(C)CCCOc1nn(C(=O)c2ccccc2)c2ccccc12", "IC50, µM": 8.57}
{"COMPOUND": "CN(C)CCCOc1nn(-c2ccccc2)c2ccccc12", "IC50, µM": 2.46}
{"COMPOUND": "CN(C)CCCCOc1nn(Cc2ccccc2)c2ccccc12", "IC50, µM": 7.62}

[a] CN(C)CCCOc1cc(Cc2ccccc2)n[nH]1
[b] CN(C)CCCOc1nn(Cc2ccccc2)c2ccccc12
## Input Hey, which is lower on measured IC50, a or b ? # answer = label of selected item
## Output b
(b: 6.67 µM, a: 49.2 µM)

[1] CN(C)CCCOc1nn(S(C)(=O)=O)c2ccccc12
[2] CN(C)CCCOc1cc(-c2ccoc2)[nH]n1
## Input Lab note: check whether 1 or 2 shows the higher recorded IC50. Could you answer with the label of the item you picked?
## Output 2

Every entry's value here was drawn from ChEMBL document CHEMBL1134437.
